- System: A-549
- method-summary: SRB colorimetric assay of cell growth and viability, A-549
- Assay type: cell-based, human
- condition-parameters: 48 hours exposure, SRB; read-out: LC50 A-549
Where a SMILES comes first, the peptide text is derived from it. Bridges are numbered along the chain shown (N, C = ends). [ ]: non-standard residue; d: D form. The star is where a group is joined. d(aIle) = CC[C@H](C)[C@@H](N)C(=O)O; d(aThr) = C[C@@H](O)[C@@H](N)C(=O)O; Hexanoyl(5-Me) = CC(C)CCCC(=O)*; Orn = NCCC[C@H](N)C(=O)O; Dha = C=C(N)C(=O)O
property-name: CC50

Before answering, review these 2 worked examples.
compound	property-name	measured
C=C1NC(=O)[C@H](Cc2ccccc2)NC(=O)[C@@H](C(C)C)NC(=O)[C@@H]([C@@H](C)CC)NC(=O)[C@H](NC(=O)[C@H](NC(=O)[C@H](CCCN)NC(=O)[C@H]2CCCN2C(=O)[C@H](NC(=O)[C@@H](NC(=O)[C@@H](NC(=O)[C@H](NC(=O)CCCC(C)C)C(C)C)[C@@H](C)O)C(C)C)C(C)C)[C@@H](C)CC)[C@@H](C)OC(=O)[C@H](C(C)C)NC1=O [Compound 67, [Dha^2]-KF] ({Hexanoyl(5-Me)}-[dV]TV[dV][dP][Orn][d(aIle)][d(aThr)][d(aIle)][dV]F[Dha]V; ester 8-C)	CC50	5.06 µM
C/C=C1\NC(=O)[C@H](Cc2ccc(Cl)c(Cl)c2)NC(=O)[C@@H](C(C)C)NC(=O)[C@@H]([C@@H](C)CC)NC(=O)[C@H](NC(=O)[C@H](NC(=O)[C@H](CCCN)NC(=O)[C@H]2CCCN2C(=O)[C@H](NC(=O)[C@@H](NC(=O)[C@@H](NC(=O)[C@H](NC(=O)CC[C@@H](C)CC)C(C)C)[C@@H](C)O)C(C)C)C(C)C)[C@@H](C)CC)[C@@H](C)OC(=O)[C@H](C(C)C)NC1=O [Compound 70, [Phe(3,4-Cl2)^3, (4S)-MeHex^14]-KF]	CC50	0.604 µM

Moving on to the next compound.
Exercise: # CC50 lookup, item C/C=C1\NC(=O)[C@@H](Cc2ccccc2)NC(=O)[C@H](C(C)C)NC(=O)[C@H]([C@H](C)CC)NC(=O)[C@@H](NC(=O)[C@@H](NC(=O)[C@@H](CCCN)NC(=O)[C@@H]2CCCN2C(=O)[C@@H](NC(=O)[C@H](NC(=O)[C@H](NC(=O)[C@@H](NC(=O)CCCC(C)C)C(C)C)[C@H](C)O)C(C)C)C(C)C)[C@H](C)CC)[C@H](C)OC(=O)[C@@H](C(C)C)NC1=O
Key: ≥ 6.77 µM

###

- Tested on: SK-BR-3
- method-summary: SRB colorimetric assay of cell growth and viability, SK-BR-3
- Format: cell-based, human
- condition-parameters: 48 hours exposure
Where a SMILES comes first, the peptide text is derived from it. Bridges are numbered along the chain shown (N, C = ends). [ ]: non-standard residue; d: D form. The star is where a group is joined. d(aIle) = CC[C@H](C)[C@@H](N)C(=O)O; d(aThr) = C[C@@H](O)[C@@H](N)C(=O)O; Hexanoyl(5-Me) = CC(C)CCCC(=O)*; Orn = NCCC[C@H](N)C(=O)O
LC50 values for the compounds below.
Lab book: enter the figure in µM, no units written.

compound	LC50 [µM]
CC[C@H](C)[C@@H](NC(=O)[C@H](CCCN)NC(=O)[C@H]1CCCN1C(=O)[C@H](NC(=O)[C@@H](NC(=O)[C@@H](NC(=O)[C@H](NC(=O)CCCC(C)C)C(C)C)[C@@H](C)O)C(C)C)C(C)C)C(=O)N[C@H]1C(=O)N[C@H]([C@@H](C)CC)C(=O)N[C@H](C(C)C)C(=O)N[C@@H](Cc2ccccc2)C(=O)NCC(=O)N[C@@H](C(C)C)C(=O)O[C@@H]1C [Compound 65, [Gly^2]-KF] ({Hexanoyl(5-Me)}-[dV]TV[dV][dP][Orn][d(aIle)][d(aThr)][d(aIle)][dV]FGV; ester 8-C)	4.19

Exercise: # LC50 lookup, item C/C=C1\NC(=O)[C@H](Cc2ccccc2)NC(=O)[C@@H](C(C)C)NC(=O)[C@@H]([C@@H](C)CC)NC(=O)[C@H](NC(=O)[C@H](NC(=O)[C@H](CCCN)NC(=O)[C@H]2CCCN2C(=O)[C@H](NC(=O)[C@@H](NC(=O)[C@@H](NC(=O)[C@H](NC(=O)CCCNC(=N)N)C(C)C)[C@@H](C)O)C(C)C)C(C)C)[C@@H](C)CC)[C@@H](C)OC(=O)[C@H](C(C)C)NC1=O [Compound 29, [4-GuBut^14]-KF]
Key: 6.7
